pIC50: −log10 of the molar value.
Hi, quick share: literature pIC50 data for Beta-secretase 2 (Homo sapiens, UniProt Q9Y5Z0), several sources combined.
endpointName: pIC50

The cases that follow already have their pIC50 on record.
[
  {
    "compound": "C[C@H]1C[C@H]2CC(F)(F)C(N)=N[C@@]2(c2cc(NC(=O)c3cnc(OCF)cn3)ccc2F)CO1",
    "quantitativeResult": 8.17
  },
  {
    "compound": "COc1cccc(C2(c3ccccc3)N=C(N)N(C)C2=O)c1 (stereo not given)",
    "quantitativeResult": 5.92
  },
  {
    "compound": "CN1C(=O)C(c2cccc(-c3cncnc3)c2)(c2cnn(C3CCCC3)c2)N=C1N (racemic)",
    "quantitativeResult": 6.77
  }
]

(a) CCNc1cc(C(=O)N[C@@H](Cc2ccccc2)[C@H](O)CNCc2cccc(C(F)(F)F)c2)cc(N2CCCCS2(=O)=O)c1
(b) NC1=N[C@@]2(c3cc(NC(=O)c4cnc(OCF)cn4)ccc3F)CO[C@@H](CF)C[C@H]2CC1(F)F
Which gives the smaller pIC50 number: a or b ? Answer format: the label of the selected item.
a
(a: 5.94, b: 8.05)

* * *

Hi, quick share: literature IC50 data for Beta-secretase 2 (Homo sapiens, UniProt Q9Y5Z0), several sources combined.
endpointName: IC50 (µM)

The cases that follow already have their IC50 on record.
[
  {
    "molecule": "COc1ccc([C@]2(C34CC5CC(CC(C5)C3)C4)N=C(N)N(C)C2=O)cc1",
    "unitAbbrev": "µM",
    "IC50": 0.23
  },
  {
    "molecule": "CC(C)Cn1cc(C2(c3cccc(-c4cncnc4)c3)N=C(N)N(C)C2=O)cn1 (racemic)",
    "unitAbbrev": "µM",
    "IC50": 0.13
  },
  {
    "molecule": "CCCN(c1cc2cc(c1)C(=O)N[C@@H](c1ccccc1)CCc1cccc(c1)C[C@@](C)(N)C(=O)OC2)S(C)(=O)=O",
    "unitAbbrev": "µM",
    "IC50": 54
  },
  {
    "molecule": "CN1C(=O)C(c2ccncc2)(c2cccc(-c3cccc(F)c3)c2)N=C1N (configuration not stated)",
    "unitAbbrev": "µM",
    "IC50": 0.08
  },
  {
    "molecule": "CN1C(=O)C(c2cccc(-c3cccnc3F)c2)(c2cnn(C3CCCC3)c2)N=C1N (racemic)",
    "unitAbbrev": "µM",
    "IC50": 0.12
  }
]

(1) COc1cccc(-c2cccc(C3(c4ccncc4)N=C(N)N(C)C3=O)c2)c1 (configuration not stated)
(2) CCOc1cc(C2(c3cccc(-c4cccnc4)c3)N=C(N)N(C)C2=O)ccc1OC (configuration not stated)
(3) CCc1cn2c3c(cc(C(=O)N[C@@H](Cc4ccccc4)[C@H](O)CNCc4cccc(OC)c4)cc13)N(C)S(=O)(=O)CC2
Please produce an ascending ranking of these molecules based on IC50. Please, when replying, give the labels in the order that was requested.
1, 3, 2
(1: 0.02 µM, 3: 0.096 µM, 2: 0.6 µM)

(P) CCC(=O)c1cc(C2(c3cccc(-c4cccnc4F)c3)N=C(N)N(C)C2=O)cs1 (racemic)
(Q) CN1C(=O)C(c2ccccc2)(C23CC4CC(CC(C4)C2)C3)N=C1N (configuration not stated)
API: POST /compare with P and Q ; response names the item with higher IC50. Answer format: the label of the selected item.
Q
(Q: 0.83 µM, P: 0.07 µM)

(I) CCC(=O)c1cc(C2(c3cccc(-c4cncnc4)c3)N=C(N)N(C)C2=O)cs1 (racemic)
(II) CCc1coc2c(N3CCCC3=O)cc(C(=O)N[C@@H](Cc3ccccc3)[C@H](O)CNCc3cccc(C(F)(F)F)c3)cc12
Which gives the smaller IC50 number: I or II ? Answer format: the label of the selected item.
I
